- SYSTEM NAME: USP25 (USP25-His6, Boston Biochem E-546) (Homo sapiens, UniProt Q9UHP3)
- Construct: His6 (C); purchased Boston Biochem E-546
- Sequence (Q9UHP3 1-1055): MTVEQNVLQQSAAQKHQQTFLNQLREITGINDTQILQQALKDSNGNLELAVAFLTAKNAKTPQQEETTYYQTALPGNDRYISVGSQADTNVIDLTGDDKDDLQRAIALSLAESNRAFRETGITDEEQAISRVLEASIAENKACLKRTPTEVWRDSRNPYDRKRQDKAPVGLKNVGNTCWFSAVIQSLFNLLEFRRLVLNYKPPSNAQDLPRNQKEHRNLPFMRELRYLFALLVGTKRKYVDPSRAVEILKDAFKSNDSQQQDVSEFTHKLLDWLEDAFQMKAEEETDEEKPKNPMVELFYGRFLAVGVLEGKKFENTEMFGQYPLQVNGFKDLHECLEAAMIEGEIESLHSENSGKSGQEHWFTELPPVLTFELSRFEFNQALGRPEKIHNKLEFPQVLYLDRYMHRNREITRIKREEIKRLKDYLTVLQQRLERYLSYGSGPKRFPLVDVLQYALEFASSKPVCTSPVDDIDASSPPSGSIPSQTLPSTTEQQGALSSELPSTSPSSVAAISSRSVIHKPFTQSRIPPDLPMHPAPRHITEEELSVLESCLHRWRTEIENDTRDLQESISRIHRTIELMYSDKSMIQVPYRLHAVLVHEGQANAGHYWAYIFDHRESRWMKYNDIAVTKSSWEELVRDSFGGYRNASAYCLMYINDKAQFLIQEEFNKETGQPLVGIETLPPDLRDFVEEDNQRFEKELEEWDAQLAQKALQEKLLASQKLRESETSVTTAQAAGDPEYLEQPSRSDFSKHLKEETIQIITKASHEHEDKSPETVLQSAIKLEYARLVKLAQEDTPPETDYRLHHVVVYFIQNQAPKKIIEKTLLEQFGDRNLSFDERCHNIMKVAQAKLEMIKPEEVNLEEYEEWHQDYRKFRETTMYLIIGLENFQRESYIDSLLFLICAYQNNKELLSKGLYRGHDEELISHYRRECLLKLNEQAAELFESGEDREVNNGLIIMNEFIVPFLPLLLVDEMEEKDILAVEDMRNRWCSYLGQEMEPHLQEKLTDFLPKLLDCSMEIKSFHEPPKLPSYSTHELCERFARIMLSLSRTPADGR
- ASSAY NOTES: Ubiquitin-Rhodamine 110 Assay for USP25 Activity, Example A-3
- Assay type: biochemical
- CONDITION INFO: Ubiquitin-Rhodamine 110 assay, Example A-3; read-out: USP25 A-3 IC50 range
READOUT LABEL: IC50

• Cc1ccc2c(N)c(C(=O)N[C@@H]3CCc4nc(N5C[C@H](C(F)F)[C@@H](N)C5)ncc4C3)sc2n1 [Example 383] = > 2000 nM
• Cc1ccc2c(N)c(C(=O)N[C@H]3CCc4nc(N5C[C@@H](N)[C@]6(CCOC6)C5)ccc4C3)sc2n1 [Example 438] = > 2000 nM
• Cc1cnc2c(N)c(C(=O)N[C@@H]3CCc4cc(N5CCNCC5)cc(F)c4C3)sc2n1 (single isomer, unassigned) [Example 11-37] = > 2000 nM
• Cc1ccc2c(N)c(C(=O)N[C@H]3CCc4nc(N5C[C@H]6COC[C@@H](C5)[C@@H]6N)ccc4C3)sc2n1 [Example 397] = 200 to 2000 nM
• Cc1ccc2c(N)c(C(=O)N[C@H]3CCc4nc(N5CCN[C@@H](C(F)F)C5)ccc4C3)sc2n1 [Example 375] = > 2000 nM
• COC[C@@H]1[C@@H](N)CCN1c1ccc2c(n1)CC[C@H](NC(=O)c1sc3nc(C)ccc3c1N)C2 [Example 420] = 50 to 200 nM
• Cc1ccc2c(N)c(C(=O)N[C@H]3CCc4cc(N5CC6CNCC(C5)O6)cc(F)c4C3)sc2n1 (single isomer, unassigned) [Example 11-39] = > 2000 nM
• CN[C@H]1CN(c2ccc3c(n2)CC[C@H](NC(=O)c2sc4nc(C)ccc4c2N)C3)C[C@H]1CF [Example 441] = > 2000 nM
• CO[C@H]1CN(c2cc(F)c3c(c2C#N)CC[C@@H](NC(=O)c2sc4nc(C)ccc4c2N)C3)C[C@@H]1N (single isomer, unassigned) [Example 14-24] = > 2000 nM
• Cc1ccc2c(N)c(C(=O)N[C@H]3CCc4nc(N5C6CC(N)CC5CS(=O)(=O)C6)ccc4C3)sc2n1 (stereo partly shown) [Example 429] = 50 to 200 nM

Give IC50 for all molecules that follow.
1. Cc1cnc2c(N)c(C(=O)N[C@@H]3CCc4c(C#N)c(N5CC6CCC(C5)N6)cc(F)c4C3)sc2n1 (single isomer, unassigned) [Example 14-20]
2. Cc1ccc2c(N)c(C(=O)N[C@H]3CCc4nc(N5C[C@H]6CCN[C@@H](C5)C6(F)F)ccc4C3)sc2n1 [Example 368]
3. Cc1ccc2c(N)c(C(=O)N[C@@H]3CCc4c(C#N)c(N5CC6CNCC(C5)O6)cc(F)c4C3)sc2n1 (single isomer, unassigned) [Example 14-16]
4. Cc1ccc2c(N)c(C(=O)N[C@@H]3COc4cc(N5CCNCC5)ccc4[C@@H]3C)sc2n1 (single isomer, unassigned) [Example 11-18]
5. Cc1ccc2c(N)c(C(=O)N[C@H]3CCc4c(C#N)c(N5CC6CNCC(C5)O6)cc(F)c4C3)sc2n1 (single isomer, unassigned) [Example 14-15]
6. Cc1ccc2c(N)c(C(=O)N[C@H]3CCc4nc(N5CC[C@](N)(CO)C5)ccc4C3)sc2n1 [Example 386]

[reply]
1. > 2000 nM
2. 50 to 200 nM
3. 200 to 2000 nM
4. 200 to 2000 nM
5. 1 to 50 nM
6. 200 to 2000 nM

Give IC50 for all molecules that follow.
1. COC[C@]1(N)CCN(c2ccc3c(n2)CC[C@H](NC(=O)c2sc4nc(C)ccc4c2N)C3)C1 [Example 389]
2. Cc1ccc2c(N)c(C(=O)N[C@H]3CCc4c(F)c(N5CC6CCC(C5)N6)cc(F)c4C3)sc2n1 (single isomer, unassigned) [Example 22-5]
3. CN[C@@H]1CCN(c2ccc3c(c2)CC[C@H](NC(=O)c2sc4nc(C)cnc4c2N)C3)C1 (single isomer, unassigned) [Example 11-27]

[reply]
1. 200 to 2000 nM
2. 1 to 50 nM
3. 200 to 2000 nM

Give IC50 for all molecules that follow.
1. CCn1ccc2cc(C(=O)N[C@H]3CCc4nc(N5C[C@H](COC)[C@H](N)C5)ccc4C3)cnc21 (single isomer, unassigned) [Example 401]
2. Cc1ccc2c(N)c(C(=O)N[C@H]3CCc4nc(N5C[C@@H]6COC[C@]6(N)C5)ccc4C3)sc2n1 [Example 394]
3. Cc1cnc2c(N)c(C(=O)N[C@H]3CCc4cc(N5C[C@H]6C[C@@H]5CN6)ccc4C3)sc2n1 (single isomer, unassigned) [Example 11-31]
4. Cc1ccc2c(N)c(C(=O)N[C@H]3CCc4nc(N5CC[C@@]6(C5)OCC[C@@H]6N)ccc4C3)sc2n1 [Example 407]
5. CO[C@@]12CCN[C@H]1CN(c1ccc3c(n1)CC[C@H](NC(=O)c1sc4nc(C)ccc4c1N)C3)C2 [Example 434]

[reply]
1. > 2000 nM
2. > 2000 nM
3. 200 to 2000 nM
4. > 2000 nM
5. > 2000 nM

[ask] Fill in the blank: the reported IC50 of Cc1cnc2c(N)c(C(=O)N[C@H]3CCc4cc(N5CCNCC5)cc(F)c4C3)sc2n1 (single isomer, unassigned) [Example 11-38] is ____.
[reply] 200 to 2000 nM

Reference source: patent US12162888B2
